Tested on: MARK3
Conditions: concentration: 1 μM,replicates: in singlicate; n = 1;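 also: KINOMEscan kinase panel screen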
measurement name: %Inh

- NC(=O)c1cc(-c2ccccc2)cc2c(C3CCNCC3)c[nH]c12: 0%
- Cc1ccc(-n2nc(C(C)(C)C)cc2NC(=O)Nc2ccc(OCCN3CCOCC3)c3ccccc23)cc1: 2%

Next, consider the following molecule.
Lab note: measured %Inh of `Cc1n[nH]c2ccc(-c3cc(OC[C@@H](N)Cc4ccccc4)cnc3-c3ccoc3)cc12.O=C(O)C(F)(F)F.O=C(O)C(F)(F)F` was 0%

###

Exercise: for every item that follows, state its recorded %Inh.
System: TYK2(JH2domain-pseudokinase)
Details: concentration: 1 μM,replicates: in singlicate; n = 1
One number for each entry, in %.

Sample answers from the record:
- O=C(NCCNc1ccnc(NCc2ccc(F)cc2)n1)c1cc2ccccc2s1 [GSK1379944]: 10
- C=CC(=O)Nc1cc2c(Nc3ccc(F)c(Cl)c3)ncnc2cc1OCCCN1CCOCC1 [GW781483]: 21
- NC(=O)c1cc(-c2ccccc2)cc2c(C3CCNCC3)c[nH]c12 [GSK301362]: 99.7
- CC(C)N1C(=O)Cc2cc(Nc3ncc(C(F)(F)F)c(NCc4cccc(S(C)(=O)=O)c4)n3)ccc21: 29

Please go through the list and note %Inh for each compound.
1. Cl.Cl.NC[C@H](CC1CCCCC1)NC(=O)c1cc(Br)c(-c2ccnc3[nH]ccc23)s1 [GSK1581427]
2. O=C(NCCCN1CCOC1=O)c1cnc(NCc2cc(Cl)ccc2Cl)nc1NC1CCCC1

A.
1: 5; 2: 0

###

Exercise: for every item that follows, state its recorded %Inh.
System: BUB1
Conditions: concentration: 1 μM,replicates: in singlicate; n = 1

Sample answers from the record:
- O=C(NCCNc1ccnc(NCc2ccc(F)cc2)n1)c1cc2ccccc2s1: 5%
- CCN(CC)CCCCNc1ncc2cc(-c3c(Cl)cccc3Cl)c(NC(=O)NC(C)(C)C)nc2n1: 17%
- CCn1c(-c2nonc2N)nc2c(C#CC(C)(C)O)nc(OCCN)cc21.Cl.Cl: 22%
- C=CC(=O)Nc1cc2c(Nc3ccc(F)c(Cl)c3)ncnc2cc1OCCCN1CCOCC1: 52%
- COc1ccc(C[C@@H](CN)NC(=O)c2cc(Br)c(-c3ccnc4[nH]ccc34)s2)cc1.Cl.Cl: 58%
- CN(C)CC(O)COc1ccc(Nc2nccc(-c3cnn4nc(N5CCOCC5)ccc34)n2)cc1 (centres unmarked): 76%
- CN(C)CCOc1ccc(-c2cc(-c3c[nH]nc3-c3ccccn3)ccn2)cc1: 0%

Lab note: measured %Inh of `CC(C)Nc1cc(-c2ccc3c(N)n[nH]c3c2)nc(N)n1` was 80%

###

Tested on: MERTK
Details: concentration: 1 μM,replicates: in singlicate; n = 1
Exercise: for every item that follows, state its recorded %Inh.

• O=C(NCCCN1CCOC1=O)c1cnc(NCc2cc(Cl)ccc2Cl)nc1NC1CCCC1 = 75%
• Cc1cc(C(=O)Nc2ccc(Oc3ccc4nc(NC(=O)C5CC5)cn4n3)cc2)nn1-c1ccccc1 = 88%

Next, consider the following molecule.
Lab note: measured %Inh of `CCn1c(-c2nonc2N)nc2c(C#CC(C)(C)O)nc(OCCN)cc21.Cl.Cl` was 0%

###

Exercise: for every item that follows, state its recorded %Inh.
Test system: TBK1
Details: concentration: 1 μM,replicates: in singlicate; n = 1
One number for each entry, in %.

Sample answers from the record:
• Cc1ccc2c(-c3ccncc3)c(-c3ccc(F)cc3)nn2c1.Cl = 21
• Cl.Cl.Nc1nc(-c2ccc3c(N)n[nH]c3c2)cc(N2CCCC(NC(=O)c3ccccc3)C2)n1 (centres unmarked) = 76
• Cc1occc1-c1nc(N)c(OC[C@@H](N)Cc2c[nH]c3ccccc23)cc1-c1cc2c(C)n[nH]c2cn1 = 6
• CC(C)N1C(=O)Cc2cc(Nc3ncc(C(F)(F)F)c(NCc4cccc(S(C)(=O)=O)c4)n3)ccc21 = 86

Next, consider the following compound.
Fill in: TBK1 %Inh for `CN(C)CCOc1ccc(-c2cc(-c3c[nH]nc3-c3ccccn3)ccn2)cc1` = 18

###

System: ACVR2A
Settings: concentration: 1 μM,replicates: in singlicate; n = 1
measurement name: %Inh (%)
One number for each entry, in %.

* CC(C)Nc1cc(-c2ccc3c(N)n[nH]c3c2)nc(N)n1 | 0
* C[C@@H](Oc1cc(-c2cnn(C3CCNCC3)c2)cnc1N)c1c(Cl)ccc(F)c1Cl | 0

Please go through the list and note %Inh for each molecule.
1. COc1ccc(C[C@@H](CN)NC(=O)c2cc(Br)c(-c3ccnc4[nH]ccc34)s2)cc1.Cl.Cl
2. CCN(CC)CCOc1ccc(Nc2ncc3cc(-c4c(Cl)cccc4Cl)c(=O)n(C)c3n2)cc1
3. Nc1nc(Nc2ccccc2)cc(-c2ccc3c(N)n[nH]c3c2)n1
4. C[C@@H]1CCN(C(=O)CC#N)C[C@@H]1N(C)c1ncnc2[nH]ccc12

A.
13
97.3
1
0

###

Tested on: ROCK2
Details: concentration: 1 μM,replicates: in singlicate; n = 1
measurement name: %Inh
# number then unit; no other words

• NC(=O)c1cc(-c2ccccc2)cc2c(C3CCNCC3)c[nH]c12 [GSK301362] = 19%
• Cc1n[nH]c2ccc(-c3cc(OC[C@@H](N)Cc4ccccc4)cnc3-c3ccoc3)cc12.O=C(O)C(F)(F)F.O=C(O)C(F)(F)F [GSK507358] = 33%
• CCN(CC)CCCCNc1ncc2cc(-c3c(Cl)cccc3Cl)c(NC(=O)NC(C)(C)C)nc2n1 = 9%
• CN(C)CCOc1ccc(-c2cc(-c3c[nH]nc3-c3ccccn3)ccn2)cc1 [GW835314] = 18%
• Cc1ccc2c(-c3ccncc3)c(-c3ccc(F)cc3)nn2c1.Cl [GW461484] = 5%

Please go through the list and note %Inh for each compound.
1. CC(C)N1C(=O)Cc2cc(Nc3ncc(C(F)(F)F)c(NCc4cccc(S(C)(=O)=O)c4)n3)ccc21
2. O=C(NCCCN1CCOC1=O)c1cnc(NCc2cc(Cl)ccc2Cl)nc1NC1CCCC1
3. Cc1occc1-c1nc(N)c(OC[C@@H](N)Cc2c[nH]c3ccccc23)cc1-c1cc2c(C)n[nH]c2cn1 [GSK1660450]
4. Cl.Oc1cc(-c2nc(-c3ccccc3)[nH]c2-c2ccncc2)ccc1Cl [SB-386023]

A.
0%
0%
82%
6%

###

System: ROS1
Details: concentration: 1 μM,replicates: in singlicate; n = 1
Lab note: compare %Inh with 40%, writing YES if less and NO if equal or more.

Field: example entries. Status: answers known.
• CC(C)N1C(=O)Cc2cc(Nc3ncc(C(F)(F)F)c(NCc4cccc(S(C)(=O)=O)c4)n3)ccc21 = NO
• COc1ccc(C[C@@H](CN)NC(=O)c2cc(Br)c(-c3ccnc4[nH]ccc34)s2)cc1.Cl.Cl [GSK1389063] = NO

Q. %Inh strictly < 40% for this compound? CCn1c(-c2nonc2N)nc2c(C#CC(C)(C)O)nc(OCCN)cc21.Cl.Cl [GSK902056]
A. YES

Q. %Inh strictly < 40% for this compound? `Cc1cc(C(=O)Nc2ccc(Oc3ccc4nc(NC(=O)C5CC5)cn4n3)cc2)nn1-c1ccccc1`
A. YES

Q. %Inh strictly < 40% for this compound? CN(C)CC(O)COc1ccc(Nc2nccc(-c3cnn4nc(N5CCOCC5)ccc34)n2)cc1 (stereo not shown) [GW767488]
A. NO

Q. %Inh strictly < 40% for this compound? `CCN(CC)CCCCNc1ncc2cc(-c3c(Cl)cccc3Cl)c(NC(=O)NC(C)(C)C)nc2n1`
A. NO

Q. %Inh strictly < 40% for this compound? CCN(CC)CCOc1ccc(Nc2ncc3cc(-c4c(Cl)cccc4Cl)c(=O)n(C)c3n2)cc1 [SB-601273]
A. NO

###

System: MRCKB
Construct: gene CDC42BPB
Settings: concentration: 1 μM,replicates: in singlicate; n = 1
Exercise: for every item that follows, state its recorded %Inh.

Sample answers from the record:
- Cl.Oc1cc(-c2nc(-c3ccccc3)[nH]c2-c2ccncc2)ccc1Cl: 0%
- CC(C)N1C(=O)Cc2cc(Nc3ncc(C(F)(F)F)c(NCc4cccc(S(C)(=O)=O)c4)n3)ccc21: 0%
- C[C@@H]1CCN(C(=O)CC#N)C[C@@H]1N(C)c1ncnc2[nH]ccc12: 0%
- CNC(=O)c1ccccc1Sc1ccc2c(/C=C/c3ccccn3)n[nH]c2c1: 100%

Next, consider the following compound.
Lab note: measured %Inh of `Cc1ccc2c(-c3ccncc3)c(-c3ccc(F)cc3)nn2c1.Cl` was 0%

###

Exercise: for every item that follows, state its recorded %Inh.
Test system: PRKX
Details: concentration: 1 μM,replicates: in singlicate; n = 1
Numbers only, in %.

- CN(C)CCOc1ccc(-c2cc(-c3c[nH]nc3-c3ccccn3)ccn2)cc1: 0
- O=C(NCCCN1CCOC1=O)c1cnc(NCc2cc(Cl)ccc2Cl)nc1NC1CCCC1: 0
- CC(C)N1C(=O)Cc2cc(Nc3ncc(C(F)(F)F)c(NCc4cccc(S(C)(=O)=O)c4)n3)ccc21: 0
- Cc1occc1-c1nc(N)c(OC[C@@H](N)Cc2c[nH]c3ccccc23)cc1-c1cc2c(C)n[nH]c2cn1: 79
- C[C@@H](Oc1cc(-c2cnn(C3CCNCC3)c2)cnc1N)c1c(Cl)ccc(F)c1Cl: 35

Please go through the list and note %Inh for each molecule.
1. Cl.Oc1cc(-c2nc(-c3ccccc3)[nH]c2-c2ccncc2)ccc1Cl
2. Cc1cc2cn[nH]c2cc1-c1cccc2c(N)c(C(N)=O)nnc12
3. COc1ccc(C[C@@H](CN)NC(=O)c2cc(Br)c(-c3ccnc4[nH]ccc34)s2)cc1.Cl.Cl
4. Nc1nc(Nc2ccccc2)cc(-c2ccc3c(N)n[nH]c3c2)n1
5. Cc1ccc2c(-c3ccncc3)c(-c3ccc(F)cc3)nn2c1.Cl

A.
0
20
94.2
57
0
